Origin of values: PubChem BioAssay (NCI)

Please respond with reported growth inhibition for every item in the list.
experiment: NCI Yeast Anticancer Drug Screen. Data for the rad50 strain (AID 155);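 further: 0% = growth of vehicle-only cultures of the same strain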; conditions: S. cerevisiae rad50 strain growth inhibition; at 50.0 µM; hits give high values
The panel holds about 79,000 compounds, 15% with a hit somewhere; the sample as a whole holds those more often.
One number for each entry, in %.

Below are worked cases with known answers.
# molecule, growth inhibition, %
rows = [
    ("CCOC(=O)C(=O)Nc1ccc2cc(OC)ccc2c1C#N", 13.8),
    ("O=Nc1ccc(Cl)cc1", -7.1),
    ("CC(=O)c1ccc(OCc2ccccc2)c(OCc2ccccc2)c1", 2.45),
]

Please report growth inhibition for every entry that follows.
1. O=P(Nc1ccc(Cl)c(Cl)c1)(N1CCCCC1)N1CCCCC1
2. Oc1ccccc1C1SC(c2ccccc2O)SC(c2ccccc2O)S1 (stereo not given)
3. [N-]=[N+]=NC12CC3C4CC5CC3C(C1)C(C5)C4C2
4. CCN(CC)CCOc1ccc(C)c2c1C(=O)CC2
5. COc1cc(Nc2nc3ccccc3nc2-c2cccs2)cc(OC)c1OC

Output line:
3.5
96.9
10.3
-27.6
4.8

* * *

Please respond with reported growth inhibition for every item in the list.
test: NCI Yeast Anticancer Drug Screen. Data for the mlh1 rad18 strain (AID 175); details: S. cerevisiae mlh1 rad18 strain growth inhibition; at 50.0 µM; hits give high values
The panel holds about 79,000 compounds, 15% with a hit somewhere; the sample as a whole holds those more often.
Answers are plain numbers, in %.

Below are worked cases with known answers.
# compound, growth inhibition (%)
rows = [
    ("O=C(NCCNCCO)N/N=C/c1ccccc1", -0.65),
    ("Nc1cc(Cl)c([N+](=O)[O-])cc1O", -12),
    ("Cc1ccc(C)n1-c1ccc(OCC(N)=O)cc1", 13.9),
    ("O=[N+]([O-])c1cccc(/C=N\\O)c1", -8.4),
    ("CC(=O)Nc1c(Nc2ccccc2)[nH]c(C)nc1=S", -9.8),
]

Please report growth inhibition for every entry that follows.
1. COc1ccc(S(=O)(=O)N/N=C/C(=O)OCOC(=O)C(C)(C)C)cc1
2. Cc1ccc(NC(=O)C(=O)C2NC(=S)NC2=O)c([N+](=O)[O-])c1 (configuration not stated)
3. NCC1(N2CCOCC2)C2CCCC21CNc1ccccc1 (configuration not stated)
4. COc1cc(NC=C2C(=O)OC(C)(C)OC2=O)c(OC)c(C)c1OC
5. CCC1c2ccccc2[C@H]2C(c3ccccc3)=NN(c3ccccc3)[C@H]2N1CC (some centres not stated)

Output line:
1. 19.1
2. 8.55
3. -21
4. 4.15
5. 40.5

Please report growth inhibition for every entry that follows.
1. OCCCOCc1ccccc1
2. Cc1nc(C(N)=S)sc1C(=O)/C=C/c1c(O)ccc2ccccc12

Output line:
[12.2, 40.3]

* * *

assay: NCI Yeast Anticancer Drug Screen. Data for the cln2 rad14 strain (AID 165);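 further: 0% = growth equal to vehicle treated cultures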; details: S. cerevisiae cln2 rad14 strain, at 50.0 µM, hits give high values
About 79,000 compounds went through this panel and 15% of them were active in at least one assay; those are over-represented in the sample as a whole. Where a SMILES comes first, the peptide text is derived from it. [ ]: non-standard residue; d: D form. The star is where a group is joined. Phe(4-NO2) = N[CH](Cc1ccc([N+](=O)[O-])cc1)C(=O)O; Boc = CC(C)(C)OC(=O)*
measured_parameter: growth inhibition (%)
Numbers only, in %.

Below are worked cases with known answers.
# compound, measured_parameter, units_of_measure, quantitative_readout
measured = [
    ("COC(=O)c1cccc2c(N)c(N)cc(C(=O)OC)c12", "growth inhibition", "%", 28.2),
    ("CCCCOC1CCC(O)C2CCCCC12 (stereo not given)", "growth inhibition", "%", -0.7),
    ("O=C(Oc1ccccc1)N1CCCSC1=S", "growth inhibition", "%", 31.4),
    ("O=C1OC(c2cccc([N+](=O)[O-])c2)=N/C1=C\\c1ccccc1", "growth inhibition", "%", 18.4),
    ("CN(Cc1c(O)ccc2ccccc12)Cc1c[nH]c2ccccc12", "growth inhibition", "%", -46.5),
    ("CCOC/C(=N\\NC(N)=O)c1ccccc1", "growth inhibition", "%", -1.85),
    ("CN(C)CC1CCCC(CN(C)C)C1OC(=O)c1ccccc1 (stereo not given)", "growth inhibition", "%", -37.5),
    ("CCOc1cccc(-c2ccccc2)c1", "growth inhibition", "%", 9.35),
]

Please report growth inhibition for every entry that follows.
1. CCCCCCCC(CCCCCCC)(C(=O)OCC)C(=O)OCC
2. CCOC(C#CC(C)=O)OCC
3. NC(N)=N/N=C/c1oc(-c2ccc(S(=O)(=O)O)o2)c(-c2ccc(S(=O)(=O)O)o2)c1[N+](=O)[O-]
4. O=C(Cc1ccccc1)NS(=O)(=O)c1ccccc1

Output line:
-37.5
6.65
6.6
9.15

Please report growth inhibition for every entry that follows.
1. COC1=CC(=O)c2ccc3ccccc3c2C1=O
2. COC(=O)c1ccc(OC)cc1O
3. O=C(O)CC12C3C4C5C3C1C5C42 (stereo not given)
4. COc1ccc(C(O)/C(=C/n2ccnc2)c2ccccc2)cc1OC (stereo not given)
5. CCc1cc(CSc2ccc(Cl)cc2)ccc1N
6. C=C(C(=O)NC1CCCCC1)c1ccccc1
7. O=C(NCCCl)Oc1ccccc1
8. O=CNCCNC=O

Output line:
[88.8, -19.9, 8.5, -5.85, 97.2, -12.4, -0.1, -12.7]

Please report growth inhibition for every entry that follows.
1. CC/C(=N\N=C(/CC)c1ccc[nH]1)c1ccc[nH]1
2. COC(=O)CCC(NC(=O)OC(C)(C)C)C(=O)NC(Cc1ccc([N+](=O)[O-])cc1)C(=O)NC(CCC(=O)OC)C(=O)OC (stereo not given) (Boc-Glu(OMe)-[Phe(4-NO2)]-Glu(OMe)-OMe; configuration not given here)
3. Cc1ccc(S(=O)(=O)OCC2OCOC2C2OCOC2CI)cc1 (stereo not given)
4. Nc1c(S(=O)(=O)O)cc2cc(S(=O)(=O)O)ccc2c1N

Output line:
[5.9, 20.6, -9.9, -15.7]

Input line: What does the data say about its growth inhibition? Entry: CC(=O)OC(C[N+]1(C)CCCCCC1)C[N+]1(C)CCCCCC1
Output line: -27.6
